Data origin: paper PMC9655037

assay: Tissue distribution of TET after a single i.t. administration in normal and LPS-treated mice; conditions: BALB/c, mouse, adipose, inhaled or intranasal, 15 mg/kg, t1/2, LPS-treated mice; 15 mg/kg i.t.
QUANTITY_KIND: half-life (h)
Hi! Could you send only the number? It should be in h, unit omitted.

INPUT: half-life for COc1ccc2cc1Oc1ccc(cc1)C[C@H]1c3cc(c(OC)cc3CCN1C)Oc1c(OC)c(OC)cc3c1[C@H](C2)N(C)CC3 [TET, Tetrandrine] ?
OUTPUT: 75.2

----------
assay: Bidirectional transport in MOCK LLC-PK1 cells; details: pig
Please go through the items and note down their Papp A→B at 2 h.
Hi! Could you send only the number? It should be in ×10⁻⁶ cm/s, unit omitted.

INPUT: Papp A→B at 2 h for COCCc1ccc(OCC(O)CNC(C)C)cc1 (stereo not drawn) ?
OUTPUT: 32.2

INPUT: Papp A→B at 2 h for COc1ccc2cc1Oc1ccc(cc1)C[C@H]1c3cc(c(OC)cc3CCN1C)Oc1c(OC)c(OC)cc3c1[C@H](C2)N(C)CC3 ?
OUTPUT: 1.22

INPUT: Papp A→B at 2 h for C[C@H]1O[C@@H](O[C@H]2[C@@H](O)C[C@H](O[C@H]3[C@@H](O)C[C@H](O[C@H]4CC[C@@]5(C)[C@H](CC[C@@H]6[C@@H]5C[C@@H](O)[C@]5(C)[C@@H](C7=CC(=O)OC7)CC[C@]65O)C4)O[C@@H]3C)O[C@@H]2C)C[C@H](O)[C@@H]1O ?
OUTPUT: 2.25
